Listed here: items and their measured GI50.
Test system: HCT-116
Experiment: Cytostatic activity against human HCT116 cells after 5 days by SRB assay
Assay type: functional
Assay setup: HCT-116, 120 h

>  <Compound>
Nc1ncnc2c1c(-c1cc3ccccc3o1)cn2[C@@H]1O[C@H](CO)[C@@H](O)[C@H]1O

>  <Unit of measure>
nM

>  <Qualifying sign>
=

>  <GI50>
3740

$$$$
>  <Compound>
Nc1ncnc2c1ccn2[C@@H]1O[C@H](CO)[C@@H](O)[C@H]1O [TUBERCIDIN]

>  <Unit of measure>
nM

>  <Qualifying sign>
=

>  <GI50>
1

$$$$
>  <Compound>
Nc1ncnc2c1c(-c1ccsc1)cn2[C@@H]1O[C@H](CO)[C@@H](O)[C@H]1O

>  <Unit of measure>
nM

>  <Qualifying sign>
=

>  <GI50>
7

$$$$
>  <Compound>
Nc1ncnc2c1c(-c1ccco1)cn2[C@@H]1O[C@H](CO)[C@@H](O)[C@H]1O

>  <Unit of measure>
nM

>  <Qualifying sign>
=

>  <GI50>
48

$$$$
>  <Compound>
Nc1ncnc2c1c(-c1ncc[nH]1)cn2[C@@H]1O[C@H](CO)[C@@H](O)[C@H]1O

>  <Unit of measure>
nM

>  <Qualifying sign>
=

>  <GI50>
2

$$$$
>  <Compound>
Nc1ncnc2c1c(-c1cn[nH]c1)cn2[C@@H]1O[C@H](CO)[C@@H](O)[C@H]1O

>  <Unit of measure>
nM

>  <Qualifying sign>
=

>  <GI50>
970

$$$$
>  <Compound>
CSc1ccc(-c2cn([C@@H]3O[C@H](CO)[C@@H](O)[C@H]3O)c3ncnc(N)c23)cc1

>  <Unit of measure>
nM

>  <Qualifying sign>
=

>  <GI50>
1290

$$$$
>  <Compound>
Nc1ncnc2c1c(-c1c[nH]nn1)cn2[C@@H]1O[C@H](CO)[C@@H](O)[C@H]1O

>  <Unit of measure>
nM

>  <Qualifying sign>
=

>  <GI50>
4

$$$$
>  <Compound>
COc1cccc2c1C(=O)c1c(O)c3c(c(O)c1C2=O)C[C@@](O)(C(=O)CO)C[C@@H]3O[C@H]1C[C@H](N)[C@H](O)[C@H](C)O1 [DOXORUBICIN]

>  <Unit of measure>
nM

>  <Qualifying sign>
=

>  <GI50>
11

$$$$
>  <Compound>
Nc1ncnc2c1c(-c1ccccc1)cn2[C@@H]1O[C@H](CO)[C@@H](O)[C@H]1O

>  <Unit of measure>
nM

>  <Qualifying sign>
>

>  <GI50>
20000

$$$$
>  <Compound>
Nc1ncnc2c1c(-c1ccoc1)cn2[C@@H]1O[C@H](CO)[C@@H](O)[C@H]1O

>  <Unit of measure>
nM

>  <Qualifying sign>
=

>  <GI50>
15

$$$$
>  <Compound>
Nc1ncnc2c1c(-c1ccc[nH]1)cn2[C@@H]1O[C@H](CO)[C@@H](O)[C@H]1O

>  <Unit of measure>
nM

>  <Qualifying sign>
=

>  <GI50>
65.2

$$$$
>  <Compound>
COc1ccc(-c2cn([C@@H]3O[C@H](CO)[C@@H](O)[C@H]3O)c3ncnc(N)c23)cc1

>  <Unit of measure>
nM

>  <Qualifying sign>
=

>  <GI50>
633

$$$$
